- Tested on: MT4 CMV-EGFP cells
- procedure.summary: Toxicity, mock-infected MT4 CMV-EGFP cells
- Format: cell-based, human
- conditions: mock-infected MT4 CMV-EGFP cells
measured.quantity: Toxicity MT4 (pCC50)

compound	result
CC(C)CN(C[C@@H](O)[C@H](Cc1ccccc1)NC(=O)OCc1cncs1)C(=O)c1ccc2nc(-c3ccncc3)oc2c1 [Compound C48]	<4.00
CCNc1nc2ccc(C(=O)N(CC(C)C)C[C@@H](O)[C@H](Cc3ccccc3)NC(=O)OCc3cncs3)cc2o1 [Compound C27]	<4.00
CC(C)CN(C[C@@H](O)[C@H](Cc1ccccc1)NC(=O)OCc1cncs1)C(=O)c1ccc2nc(N(C)C)oc2c1 [Compound C4]	=4.32
CCNc1nc2ccc(C(=O)N(C[C@@H](O)[C@H](Cc3ccccc3)NC(=O)OCc3cncs3)CC(C)(C)O)cc2o1 [Compound C44]	<4.00
C#CCN(C)c1nc2ccc(C(=O)N(CC(C)C)C[C@@H](O)[C@H](Cc3ccccc3)NC(=O)OCc3cncs3)cc2o1 [Compound C50]	=4.32
CC(C)CN(C[C@@H](O)[C@H](Cc1ccccc1)NC(=O)OCc1cncs1)C(=O)c1ccc2nc(NC3CCN(C)CC3)oc2c1 [Compound C25]	<4.00

====

- system: UniProt:P08684
- Sequence (P08684 whole entry): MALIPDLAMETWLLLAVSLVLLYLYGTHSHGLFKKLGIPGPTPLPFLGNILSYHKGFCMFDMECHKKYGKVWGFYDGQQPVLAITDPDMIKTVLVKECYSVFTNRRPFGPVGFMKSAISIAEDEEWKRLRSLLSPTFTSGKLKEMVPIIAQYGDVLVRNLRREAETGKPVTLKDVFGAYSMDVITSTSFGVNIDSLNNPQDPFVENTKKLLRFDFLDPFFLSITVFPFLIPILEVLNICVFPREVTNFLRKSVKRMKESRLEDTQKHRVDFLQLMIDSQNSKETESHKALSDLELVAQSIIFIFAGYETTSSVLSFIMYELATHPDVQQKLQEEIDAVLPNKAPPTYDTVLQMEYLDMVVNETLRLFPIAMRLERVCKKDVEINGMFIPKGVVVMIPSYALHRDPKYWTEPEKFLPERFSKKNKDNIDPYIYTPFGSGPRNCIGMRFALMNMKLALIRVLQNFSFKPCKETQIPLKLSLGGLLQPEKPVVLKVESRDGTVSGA
- procedure.summary: CYP450 inhibition CDNA-CYP3A4-BFC
- conditions: human, E. coli expressed CYP3A4, pH 7.4, probe BFC 150 μM
measured.quantity: inhibition at 30 min, 10 μM (%)

structure.as.smiles	measured.quantity	output.unit	numeric.readout
CC(C)CN(C[C@@H](O)[C@H](Cc1ccccc1)NC(=O)OCc1cncs1)C(=O)c1ccc2ncoc2c1	inhibition at 30 min, 10 μM	%	95
CCc1nc2ccc(C(=O)N(CC(C)C)C[C@@H](O)[C@H](Cc3ccccc3)NC(=O)OCc3cncs3)cc2o1	inhibition at 30 min, 10 μM	%	95
CC(C)CN(C[C@@H](O)[C@H](Cc1ccccc1)NC(=O)OCc1cncs1)C(=O)c1ccc2nc(N3CCCCC3)oc2c1	inhibition at 30 min, 10 μM	%	95
Cc1nc2ccc(C(=O)N(CC(C)C)C[C@@H](O)[C@H](Cc3ccccc3)NC(=O)OCc3cncs3)cc2o1	inhibition at 30 min, 10 μM	%	94
CCN(C[C@@H](O)[C@H](Cc1ccccc1)NC(=O)OCc1cncs1)C(=O)c1ccc2nc(N(C)CC)oc2c1	inhibition at 30 min, 10 μM	%	90
CC(C)CN(C[C@@H](O)[C@H](Cc1ccccc1)NC(=O)OCc1cncs1)C(=O)c1ccc2nc(NCCN(C)C)oc2c1	inhibition at 30 min, 10 μM	%	93
CC(C)CN(C[C@@H](O)[C@H](Cc1ccccc1)NC(=O)OCc1cncs1)C(=O)c1ccc2nc(N3CCN(C)CC3)oc2c1	inhibition at 30 min, 10 μM	%	98

====

- System: wild-type HIV-1IIIB strain
- procedure.summary: Antiviral activity, MT4 LTR-EGFP cellular assay
- Assay type: cell-based
- conditions: wild-type HIV-1 IIIB, MT4 LTR-EGFP cells, three days after infection
measured.quantity: Antiviral activity IIIB (pEC50)

molecule	system	measured.quantity	result
CCNc1nc2ccc(C(=O)N(CC(C)C)C[C@@H](O)[C@H](Cc3ccccc3)NC(=O)OCc3cncs3)cc2o1 [Compound C27]	wild-type HIV-1IIIB strain	Antiviral activity IIIB (pEC50)	=4.07
CN(C)CCN(C[C@@H](O)[C@H](Cc1ccccc1)NC(=O)OCc1cncs1)C(=O)c1ccc2nc(N3CCCC3)oc2c1 [Compound C17]	wild-type HIV-1IIIB strain	Antiviral activity IIIB (pEC50)	<4.00
CC(C)(C)CN(C[C@@H](O)[C@H](Cc1ccccc1)NC(=O)OCc1cncs1)C(=O)c1ccc2nc(N3CCCC3)oc2c1 [Compound C37]	wild-type HIV-1IIIB strain	Antiviral activity IIIB (pEC50)	=4.35
CCN(C)c1nc2ccc(C(=O)N(CCN3CCCC3)C[C@@H](O)[C@H](Cc3ccccc3)NC(=O)OCc3cncs3)cc2o1 [Compound C12]	wild-type HIV-1IIIB strain	Antiviral activity IIIB (pEC50)	<4.00
CCN(C)c1nc2ccc(C(=O)N(C[C@@H](O)[C@H](Cc3ccccc3)NC(=O)OCc3cncs3)CC(C)(C)C)cc2o1 [Compound C43]	wild-type HIV-1IIIB strain	Antiviral activity IIIB (pEC50)	=4.32
C#CCN(C)c1nc2ccc(C(=O)N(CC(C)C)C[C@@H](O)[C@H](Cc3ccccc3)NC(=O)OCc3cncs3)cc2o1 [Compound C50]	wild-type HIV-1IIIB strain	Antiviral activity IIIB (pEC50)	=4.32

====

- system: CYP2C19 (Homo sapiens)
- Sequence (P33261 whole entry): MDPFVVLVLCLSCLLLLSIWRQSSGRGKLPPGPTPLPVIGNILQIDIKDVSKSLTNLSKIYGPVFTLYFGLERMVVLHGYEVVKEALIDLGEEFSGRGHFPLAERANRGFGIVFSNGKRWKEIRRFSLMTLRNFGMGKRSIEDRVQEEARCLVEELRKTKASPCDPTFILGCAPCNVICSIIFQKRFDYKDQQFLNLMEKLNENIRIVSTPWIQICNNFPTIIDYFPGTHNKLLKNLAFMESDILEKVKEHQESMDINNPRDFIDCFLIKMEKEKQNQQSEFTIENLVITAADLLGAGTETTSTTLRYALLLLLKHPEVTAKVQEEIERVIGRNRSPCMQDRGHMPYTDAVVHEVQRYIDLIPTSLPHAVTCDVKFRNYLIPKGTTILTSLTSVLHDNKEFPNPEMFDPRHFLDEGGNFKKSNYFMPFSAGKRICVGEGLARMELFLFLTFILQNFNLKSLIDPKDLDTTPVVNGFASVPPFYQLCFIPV
- procedure.summary: in vitro
- conditions: E. coli expressed CYP2C19, pH 7.4, probe CEC 25 μM
Each entry below carries its recorded inhibition at 30 min, 10 μM.
measured.quantity: inhibition at 30 min, 10 μM (%)

structure.as.smiles	numeric.readout
CC(C)CN(C[C@@H](O)[C@H](Cc1ccccc1)NC(=O)OCc1cncs1)C(=O)c1ccc2ncoc2c1	81
CC(C)CN(C[C@H](O)[C@H](Cc1ccccc1)NC(=O)OCc1cncs1)C(=O)c1ccc2nc(N3CCCC3)oc2c1	94
CCc1nc2ccc(C(=O)N(CC(C)C)C[C@@H](O)[C@H](Cc3ccccc3)NC(=O)OCc3cncs3)cc2o1	87
C#CCN(C[C@@H](O)[C@H](Cc1ccccc1)NC(=O)OCc1cncs1)C(=O)c1ccc2nc(N(C)CC)oc2c1	101

====

- system: CYP1A2 (Homo sapiens)
- Sequence (P05177 whole entry): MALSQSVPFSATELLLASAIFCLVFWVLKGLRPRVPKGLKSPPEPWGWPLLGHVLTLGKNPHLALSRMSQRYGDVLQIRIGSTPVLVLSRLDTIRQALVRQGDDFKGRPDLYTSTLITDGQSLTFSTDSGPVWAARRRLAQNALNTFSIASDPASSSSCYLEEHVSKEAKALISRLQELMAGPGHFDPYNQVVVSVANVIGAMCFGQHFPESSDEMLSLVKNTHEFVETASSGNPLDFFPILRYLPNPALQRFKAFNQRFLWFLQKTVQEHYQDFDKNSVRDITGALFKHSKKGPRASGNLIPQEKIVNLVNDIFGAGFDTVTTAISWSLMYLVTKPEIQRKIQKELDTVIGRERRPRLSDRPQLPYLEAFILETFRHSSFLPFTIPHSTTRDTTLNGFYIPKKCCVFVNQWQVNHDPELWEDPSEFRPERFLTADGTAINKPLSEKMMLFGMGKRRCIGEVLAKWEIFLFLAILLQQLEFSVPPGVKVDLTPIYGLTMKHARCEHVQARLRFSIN
- procedure.summary: CYP450 inhibition CDNA-CYP1A2-CEC
- conditions: 10 μM test compound, substrate CEC 5 μM, 15 min
measured.quantity: Cyp450 inhibition: CDNA-CYP1A2-CEC (% inhibition) (%)

molecule	numeric.readout
CC(C)CN(C[C@@H](O)[C@H](Cc1ccccc1)NC(=O)OCc1cncs1)C(=O)c1ccc2nc(N(C)C)oc2c1 [Compound C4]	7
CC(C)CN(C[C@@H](O)[C@H](Cc1ccccc1)NC(=O)OCc1cncs1)C(=O)c1ccc2nc(-c3ccncc3)oc2c1 [Compound C48]	18
CCNc1nc2ccc(C(=O)N(C[C@@H](O)[C@H](Cc3ccccc3)NC(=O)OCc3cncs3)CC(C)(C)O)cc2o1 [Compound C44]	0
CC(C)CN(C[C@@H](O)[C@H](Cc1ccccc1)NC(=O)OCc1cncs1)C(=O)c1ccc2nc(NC3CCN(C)CC3)oc2c1 [Compound C25]	0
CCNc1nc2ccc(C(=O)N(CC(C)C)C[C@@H](O)[C@H](Cc3ccccc3)NC(=O)OCc3cncs3)cc2o1 [Compound C27]	10

====

- Tested on: MT4 CMV-EGFP cells
- procedure.summary: Toxicity, mock-infected MT4 CMV-EGFP cells
- Assay type: cell-based, human
measured.quantity: Toxicity MT4 (pCC50)

molecule	system	result
CC(C)CN(C[C@@H](O)[C@H](Cc1ccccc1)NC(=O)OCc1cncs1)C(=O)c1ccc2nc(N(C)CCN(C)C)oc2c1 [Compound C24]	MT4 CMV-EGFP cells	<4.00
CCN(C)c1nc2ccc(C(=O)N(CCN3CCCC3)C[C@@H](O)[C@H](Cc3ccccc3)NC(=O)OCc3cncs3)cc2o1 [Compound C12]	MT4 CMV-EGFP cells	<4.00
CCN(C)c1nc2ccc(C(=O)N(CC(C)C)C[C@@H](O)[C@H](Cc3ccccc3)NC(=O)OCc3cccnc3)cc2o1 [Compound C9]	MT4 CMV-EGFP cells	=4.24

====

- System: wild-type HIV-1IIIB strain
- procedure.summary: Antiviral activity, MT4 LTR-EGFP cellular assay
- Assay type: cell-based
- Set-up: key: pEC50 = -log10(EC50)
- conditions: wild-type HIV-1 IIIB, MT4 LTR-EGFP cells, three days after infection

structure.as.smiles	system	Antiviral activity IIIB (pEC50)
CCN(C)c1nc2ccc(C(=O)N(CCN(C)C)C[C@@H](O)[C@H](Cc3ccccc3)NC(=O)OCc3cncs3)cc2o1	wild-type HIV-1IIIB strain	<4.00
CC(C)CN(C[C@@H](O)[C@H](Cc1ccccc1)NC(=O)OCc1cncs1)C(=O)c1ccc2ncn(C(C)C)c2c1	wild-type HIV-1IIIB strain	<4.00
CC(C)CN(C[C@@H](O)[C@H](Cc1ccccc1)NC(=O)OCc1cncs1)C(=O)c1ccc2nc(NC3CCN(C)CC3)oc2c1	wild-type HIV-1IIIB strain	<4.00
CC(C)CN(C[C@@H](O)[C@H](Cc1ccccc1)NC(=O)OCc1cncs1)C(=O)c1ccc2nc(-c3ccncc3)oc2c1	wild-type HIV-1IIIB strain	<4.00
CC(C)CN(C[C@@H](O)[C@H](Cc1ccccc1)NC(=O)OCc1cncs1)C(=O)c1ccc2nc(N3CCCC3)oc2c1	wild-type HIV-1IIIB strain	<4.00
O=C(N[C@@H](Cc1ccccc1)[C@H](O)CN(CCN1CCOCC1)C(=O)c1ccc2nc(N3CCCC3)oc2c1)OCc1cncs1	wild-type HIV-1IIIB strain	<4.00
CCN(C)c1nc2ccc(C(=O)N(CC(C)C)C[C@@H](O)[C@H](Cc3ccccc3)NC(=O)OCc3cccnc3)cc2o1	wild-type HIV-1IIIB strain	=4.32
CCNc1nc2ccc(C(=O)N(C[C@@H](O)[C@H](Cc3ccccc3)NC(=O)OCc3cncs3)CC(C)(C)O)cc2o1	wild-type HIV-1IIIB strain	<4.00
CCN(C)c1nc2ccc(C(=O)N(CC(C)C)C[C@@H](O)[C@H](Cc3ccccc3)NC(=O)OCc3ccc4c(c3)OCO4)cc2o1	wild-type HIV-1IIIB strain	=4.79
CC(C)CN(C[C@@H](O)[C@H](Cc1ccccc1)NC(=O)OCc1cncs1)C(=O)c1ccc2nc(NCCCN(C)C)oc2c1	wild-type HIV-1IIIB strain	=4.22
CC(C)CN(C[C@@H](O)[C@H](Cc1ccccc1)NC(=O)OCc1cncs1)C(=O)c1ccc2nc(N(C)C)oc2c1	wild-type HIV-1IIIB strain	=4.33
CC(C)(O)CN(C[C@@H](O)[C@H](Cc1ccccc1)NC(=O)OCc1cncs1)C(=O)c1ccc2nc(N3CCCC3)oc2c1	wild-type HIV-1IIIB strain	<4.00
O=C(N[C@@H](Cc1ccccc1)[C@H](O)CN(CCN1CCCC1)C(=O)c1ccc2nc(N3CCCC3)oc2c1)OCc1cncs1	wild-type HIV-1IIIB strain	=4.24
